Where a name gives a salt, the structure may show the parent alone.
A short record of Ki observed with Transporter (Rattus norvegicus) follows.
Sequence (Q63380 whole entry): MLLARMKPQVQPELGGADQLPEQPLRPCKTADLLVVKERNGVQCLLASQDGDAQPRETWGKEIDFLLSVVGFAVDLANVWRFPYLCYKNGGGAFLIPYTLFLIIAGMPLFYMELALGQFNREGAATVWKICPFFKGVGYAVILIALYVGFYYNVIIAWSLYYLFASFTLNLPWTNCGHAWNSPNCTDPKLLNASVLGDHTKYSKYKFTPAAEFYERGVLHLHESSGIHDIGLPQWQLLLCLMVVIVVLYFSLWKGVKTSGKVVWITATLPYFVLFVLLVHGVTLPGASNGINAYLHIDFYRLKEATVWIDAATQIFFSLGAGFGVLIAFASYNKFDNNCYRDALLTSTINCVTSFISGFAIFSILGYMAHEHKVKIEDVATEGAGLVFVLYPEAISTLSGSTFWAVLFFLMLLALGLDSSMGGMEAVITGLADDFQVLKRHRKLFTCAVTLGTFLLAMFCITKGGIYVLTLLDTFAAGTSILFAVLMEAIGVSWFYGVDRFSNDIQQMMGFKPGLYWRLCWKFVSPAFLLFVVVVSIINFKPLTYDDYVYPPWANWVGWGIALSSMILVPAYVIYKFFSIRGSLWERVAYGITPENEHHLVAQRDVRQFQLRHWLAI
OUTCOME MEASURE: Ki (nM)

CN1CCC(C(=O)OCc2ccc3ccccc3c2)(c2ccc(Cl)c(Cl)c2)CC1: 2550
O=C(OCc1ccc([N+](=O)[O-])cc1)C1(c2ccc(Cl)c(Cl)c2)CCNCC1: 1440
CN1CCC(C(=O)OCc2ccc(Br)cc2)(c2ccc(Cl)c(Cl)c2)CC1: 580
CN1CCC(C(=O)OCc2ccccc2)(c2ccc(Cl)c(Cl)c2)CC1: 901
O=C(OCc1ccc([N+](=O)[O-])cc1)C1(c2ccc3ccccc3c2)CCNCC1: 937
CCOC(=O)C1(c2ccc(I)cc2)CCN(C)CC1: 519000
Fc1ccc([C@@H]2CCNC[C@H]2COc2ccc3c(c2)OCO3)cc1 [PAROXETINE HYDROCHLORIDE]: 59
COc1ccc(COC(=O)C2(c3ccc(I)cc3)CCNCC2)cc1: 2730

###

Target: Sodium-dependent dopamine transporter (Rattus norvegicus, UniProt P23977)
Sequence (P23977 whole entry): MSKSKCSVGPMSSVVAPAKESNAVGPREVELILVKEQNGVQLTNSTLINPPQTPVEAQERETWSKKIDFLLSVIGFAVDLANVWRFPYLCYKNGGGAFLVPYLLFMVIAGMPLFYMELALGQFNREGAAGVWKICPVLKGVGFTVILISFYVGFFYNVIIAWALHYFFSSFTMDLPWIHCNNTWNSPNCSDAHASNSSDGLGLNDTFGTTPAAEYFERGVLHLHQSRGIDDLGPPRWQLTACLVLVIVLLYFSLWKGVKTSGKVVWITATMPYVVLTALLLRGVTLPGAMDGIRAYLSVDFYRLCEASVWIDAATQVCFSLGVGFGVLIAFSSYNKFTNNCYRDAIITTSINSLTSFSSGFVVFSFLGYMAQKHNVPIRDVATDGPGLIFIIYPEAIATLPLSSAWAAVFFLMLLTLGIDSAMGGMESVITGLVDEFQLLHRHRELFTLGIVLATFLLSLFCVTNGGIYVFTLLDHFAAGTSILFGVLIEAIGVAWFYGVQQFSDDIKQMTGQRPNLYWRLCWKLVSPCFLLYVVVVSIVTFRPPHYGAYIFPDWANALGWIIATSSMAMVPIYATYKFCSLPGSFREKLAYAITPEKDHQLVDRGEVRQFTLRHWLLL
Assay: biochemical
Assay type: tissue-based, Sprague-Dawley, Brain
OUTCOME MEASURE: Ki (nM)

COc1ccc(COC(=O)C2(c3ccc(I)cc3)CCNCC2)cc1: 2920
O=C(OCc1ccc([N+](=O)[O-])cc1)C1(c2ccc(I)cc2)CCNCC1: 1780
CN1CCC(C(=O)OCc2ccc(Br)cc2)(c2ccc(Cl)c(Cl)c2)CC1: 2560

###

Biological target: UniProtKB P23977
OUTCOME MEASURE: log10 Ki (log10 of the value in nM)

CCOC(=O)C1(c2ccc3ccccc3c2)CCNCC1: 2.85
CN1CCC(C(=O)OCc2ccc(Cl)c(Cl)c2)(c2ccc(Cl)c(Cl)c2)CC1: 3.72
COc1ccc(COC(=O)C2(c3ccc4ccccc4c3)CCNCC2)cc1: 2.95
O=C(OCc1ccc([N+](=O)[O-])cc1)C1(c2ccc3ccccc3c2)CCNCC1: 2.86
CN1CCC(C(=O)OCc2ccc(-c3ccccc3)cc2)(c2ccc(Cl)c(Cl)c2)CC1: 3.75
CCOC(=O)C1(c2ccc(Cl)c(Cl)c2)CCNCC1: 2.51
O=C(OCc1ccc(Cl)c(Cl)c1)C1(c2ccc(Cl)c(Cl)c2)CCNCC1: 3.46
O=C(OCc1ccc([N+](=O)[O-])cc1)C1(c2ccc(Cl)c(Cl)c2)CCNCC1: 3.11
